- System: HCC1569;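 also: TDF denotes transformed human dermal fibroblasts of mesenchymal origin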
- ASSAY_NAME: cell number relative to DMSO (% of DMSO); higher = more cells (less growth inhibition / toxicity)
- ASSAY_CONTEXT: concentration: 10 µM; 24 h
ASSAY_METRIC: cell number
Would you mind answering with just the numeric figure?

[
  {
    "MOLECULE": "CCCCCCCCCCCCCCCC(=O)NCC(COP(=O)([O-])OCC[N+](C)(C)C)OC (racemic)",
    "cell number": 75.4
  },
  {
    "MOLECULE": "CCN(CC)C(C)C(=O)N1c2ccccc2Sc2ccccc21.Cl (stereo not drawn) [10-(alpha-Diethylaminopropionyl)-phenothiazine hydrochloride]",
    "cell number": 93.7
  },
  {
    "MOLECULE": "COc1ccccc1OCC(O)CN1CCN(CC(=O)Nc2c(C)cccc2C)CC1.Cl.Cl (centres undefined) [Ranolazine.2HCl]",
    "cell number": 104
  }
]

Next molecule, cell number to be filled in.
What value of measured cell number is listed for `O=C(O)CCCc1c[nH]c2ccccc12` ?
104
